Molecular target: furin, P09958;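 further: purified furin at 1:10 enzyme:substrate in 50 mM HEPES pH 7.5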
Sequence (P09958 whole entry): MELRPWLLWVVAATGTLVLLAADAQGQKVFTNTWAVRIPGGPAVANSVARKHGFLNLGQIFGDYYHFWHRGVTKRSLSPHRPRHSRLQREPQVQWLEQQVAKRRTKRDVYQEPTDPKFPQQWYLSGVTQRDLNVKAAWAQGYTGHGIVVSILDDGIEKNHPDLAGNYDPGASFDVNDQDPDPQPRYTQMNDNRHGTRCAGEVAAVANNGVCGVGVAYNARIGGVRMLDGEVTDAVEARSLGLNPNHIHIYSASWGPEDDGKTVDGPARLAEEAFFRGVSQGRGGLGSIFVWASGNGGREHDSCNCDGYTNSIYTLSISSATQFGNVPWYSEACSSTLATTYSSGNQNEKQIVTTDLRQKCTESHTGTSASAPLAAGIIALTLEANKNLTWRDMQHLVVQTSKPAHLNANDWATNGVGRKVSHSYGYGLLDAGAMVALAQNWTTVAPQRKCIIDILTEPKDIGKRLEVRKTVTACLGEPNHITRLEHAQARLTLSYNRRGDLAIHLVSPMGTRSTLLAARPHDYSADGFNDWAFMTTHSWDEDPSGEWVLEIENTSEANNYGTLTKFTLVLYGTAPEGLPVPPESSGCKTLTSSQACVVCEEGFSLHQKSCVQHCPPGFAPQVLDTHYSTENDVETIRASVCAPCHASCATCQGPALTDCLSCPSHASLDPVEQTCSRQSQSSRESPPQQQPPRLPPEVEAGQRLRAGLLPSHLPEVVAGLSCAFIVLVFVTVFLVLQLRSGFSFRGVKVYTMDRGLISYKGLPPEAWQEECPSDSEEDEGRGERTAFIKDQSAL
Assay: furin cleavage Z-score vs untreated control; higher = more cleavage, active = 3.5 or more, inactive = 1 or less, 8 variable residues between constant flanks
Details: 15 min
The other results are listed elsewhere or left out. No count for the full screen is at hand.
MEASUREMENT LABEL: furin cleavage Z-score
API note: the answer field is a bare number with no unit suffix.

>>> recorded_number("CAQPIPKARRAGNASASA [HC192]")
1.41

# furin cleavage Z-score lookup, item CARGKRFSQSAGNASASA [FS-2934] 2.29

Subsequent entry: CARTKRGWMWAGNASASA [FS-2828] 1.19

Subsequent entry: CAAPERERRSAGNASASA [FS-215] 11.7

Subsequent entry: CARTKRFSHTAGNASASA [FS-2827] 3.53

Subsequent entry: CAHLHAPTGSAGNASASA [HC774] 0.739
